Target: Aldo-keto reductase family 1 member C2 (Homo sapiens, UniProt P52895)
Sequence (P52895 whole entry): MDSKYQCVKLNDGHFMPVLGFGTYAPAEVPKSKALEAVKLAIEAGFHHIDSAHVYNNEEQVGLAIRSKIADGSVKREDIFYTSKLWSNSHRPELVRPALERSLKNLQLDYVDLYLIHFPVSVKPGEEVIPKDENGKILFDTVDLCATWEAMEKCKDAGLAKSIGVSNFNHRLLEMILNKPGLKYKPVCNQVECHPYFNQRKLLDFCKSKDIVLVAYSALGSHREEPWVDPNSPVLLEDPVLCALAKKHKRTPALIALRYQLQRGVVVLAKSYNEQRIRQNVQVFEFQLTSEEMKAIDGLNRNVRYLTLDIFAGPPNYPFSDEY
quantity kind: pIC50
Answers are plain numbers, as −log10 of the molar value.

Sample answers from the record:
| chem smiles | pIC50 |
| --- | --- |
| O=C(Nc1cccc(C(F)(F)F)c1)c1c(O)nnn1Cc1ccccc1 | 4.20 |
| O=C(Nc1cccc(C(F)(F)F)c1)c1c(O)nnn1CC1CC1 | 4.15 |

Please find the next molecule below.
What does the record list as pIC50 for `COc1ccc(Cn2nnc(O)c2C(=O)Nc2cccc(C(F)(F)F)c2)cc1` ?
4.14
